ASSAY_COMMENT: MIBC re-extraction (step #2) of aqueous lower layer from initial MIBC extraction (Example 4)
Format: physicochemical
MEASUREMENT_PARAMETERS: lower layer after MIBC re-extraction (step #2), one part MIBC by weight, 25° C.
ASSAY_ENDPOINT: Extr #2 LL-wt % (wt %)
One number for each entry, in wt %.

Answered examples (3):
CO; 0.15
CCO; 0.16
CC(O)CO (stereo not shown); 0.49

Kindly consider the entry below.
Form field: reported Extr #2 LL-wt % of OCCO
0.29

---

ASSAY_COMMENT: MIBC re-extraction (step #2) of aqueous lower layer from initial MIBC extraction (Example 4)
Type: physicochemical
MEASUREMENT_PARAMETERS: MIBC re-extraction (step #2)
ASSAY_ENDPOINT: Extr #2 % extract (%)
One number for each entry, in %.

// solved cases for Extr #2 % extract follow
OCCO [EG, ethylene glycol]; −43
CCO [EtOH, ethanol]; 39

Batch request: Extr #2 % extract per item, same order as input.
1. CO [MeOH, Methanol]
2. CC(O)CO (stereo not shown) [PG, 1,2-propylene glycol]

16
−30
